Listed compounds paired with reported HepG2 MIC50
test system: HepG2 cells; experiment: Mammalian cell toxicity (Cell Titer-Glo); format: cell-based; details: Table 6, 48 h incubation
Provide the reading as a plain figure in µM.

1) Nc1nc2sc(CNC3CCN(CC(O)(Cn4cncn4)c4ccc(F)cc4F)CC3)cc2n(-c2ccc3c(c2)N(c2ccccc2)CCO3)c1=O (stereo not drawn) [Compound I-47] = 4.4

Query: Could you tell me which HepG2 MIC50 is on file for Nc1nc2sc(C(=O)N[C@@H]3CCN(CC[C@@](O)(Cn4cncn4)c4ccc(F)cc4F)C3)cc2n(-c2ccc3c(c2)N(c2ccccc2)CCO3)c1=O [Compound I-70] ?
Result: 1.5

Query: Also, CC1(NC(=O)c2cc3c(nc(N)c(=O)n3-c3ccc4c(c3)N(c3ccccc3)CCO4)s2)CCN(CC(O)(Cn2cncn2)c2ccc(F)cc2F)CC1 (stereo not drawn) [Compound I-31] please.
Result: 4.6

---

Listed molecules paired with reported Kd
molecular target: Hsp90 Nuclear Binding Domain (NBD) (Aspergillus fumigatus, UniProt P40292); experiment: Surface Plasmon Resonance (SPR) binding, A. fumigatus Hsp90 NBD; settings: biotinylated Hsp90 NBD on streptavidin chip, 25° C., 1:1 binding model; NB undefined
Sequence (P40292 whole entry, looked up, the tested form may be a part): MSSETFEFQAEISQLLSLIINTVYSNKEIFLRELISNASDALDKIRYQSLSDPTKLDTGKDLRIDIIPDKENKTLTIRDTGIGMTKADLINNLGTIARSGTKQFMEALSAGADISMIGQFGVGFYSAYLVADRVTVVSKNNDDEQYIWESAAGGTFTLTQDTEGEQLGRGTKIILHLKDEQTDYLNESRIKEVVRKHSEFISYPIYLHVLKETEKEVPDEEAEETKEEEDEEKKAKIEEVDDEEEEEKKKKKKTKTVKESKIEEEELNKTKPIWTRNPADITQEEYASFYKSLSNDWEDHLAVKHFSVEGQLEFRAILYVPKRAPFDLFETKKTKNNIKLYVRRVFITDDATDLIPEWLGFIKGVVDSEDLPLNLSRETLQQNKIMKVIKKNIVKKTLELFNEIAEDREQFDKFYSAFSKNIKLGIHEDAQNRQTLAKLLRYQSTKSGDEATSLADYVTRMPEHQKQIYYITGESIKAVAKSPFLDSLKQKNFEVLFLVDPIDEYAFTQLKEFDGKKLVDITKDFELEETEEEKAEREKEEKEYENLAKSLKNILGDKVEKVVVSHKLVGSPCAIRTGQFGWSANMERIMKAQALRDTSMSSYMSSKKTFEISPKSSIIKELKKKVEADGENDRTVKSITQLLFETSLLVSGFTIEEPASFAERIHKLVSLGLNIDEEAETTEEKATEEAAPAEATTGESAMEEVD
Provide the reading as a plain figure in µM.

1) Nc1nc2sc(C(=O)NC3CCN(C[C@](O)(Cn4cncn4)c4ccc(F)cc4F)CC3)cc2n(-c2ccc3c(c2)N(c2ccccc2)CCC3)c1=O = 0.0373
2) Nc1nc2sc(CN[C@@H]3CCN(CC[C@@](O)(Cn4cncn4)c4ccc(F)cc4F)C3)cc2n(-c2ccc3c(c2)N(c2ccccc2)CCO3)c1=O = 0.238
3) Nc1nc2sc(CNC3CCN(CC[C@@](O)(Cn4cncn4)c4ccc(F)cc4F)CC3)cc2n(-c2ccc3c(c2)N(c2ccccc2)CCO3)c1=O = 0.62
4) CC1(NC(=O)c2cc3c(nc(N)c(=O)n3-c3ccc4c(c3)N(c3ccccc3)CCO4)s2)CCN(CC(O)(Cn2cncn2)c2ccc(F)cc2F)CC1 (centres unmarked) = 0.0023
5) Nc1nc2sc(CNC3CCN(CC(O)(Cn4cncn4)c4ccc(F)cc4F)CC3(F)F)cc2n(-c2ccc3c(c2)N(c2ccccc2)CCO3)c1=O (centres unmarked) = 0.127
6) Nc1nc2sc(CNC3CCN(CCCCCC(O)(Cn4cncn4)c4ccc(F)cc4F)CC3)cc2n(-c2ccc3c(c2)N(c2ccccc2)CCO3)c1=O (centres unmarked) = 0.406

Query: Query for Hsp90 Nuclear Binding Domain (NBD) (Aspergillus fumigatus, UniProt P40292): what Kd does the record show for Nc1nc2scc(C(=O)NC3CCN(C[C@](O)(Cn4cncn4)c4ccc(F)cc4F)CC3)c2n(-c2ccc3c(c2)N(c2ccccc2)CCO3)c1=O ?
Result: 1.84

Query: Also, Nc1nc2sc(CNC3CCN(CC(=O)OCCC(O)(Cn4cncn4)c4ccc(F)cc4F)CC3)cc2n(-c2ccc3c(c2)N(c2ccccc2)CCO3)c1=O (centres unmarked) please.
Result: 0.529

Query: Also, Nc1nc2sc(CN[C@H]3[C@@H]4CN(C[C@@](O)(Cn5cncn5)c5ccc(F)cc5F)C[C@@H]43)cc2n(-c2ccc3c(c2)N(c2ccccc2)CCO3)c1=O please.
Result: 1.19

Query: Also, Nc1nc2sc(CNC3CCN(CC(O)(Cn4ccnc4)c4ccc(F)cc4F)CC3)cc2n(-c2ccc3c(c2)N(c2ccccc2)CCO3)c1=O (centres unmarked) please.
Result: 0.246

Query: Also, Nc1nc2sc(CNCC3CCN(C[C@@](O)(Cn4cncn4)c4ccc(F)cc4F)CC3)cc2n(-c2ccc3c(c2)N(c2ccccc2)CCO3)c1=O please.
Result: 1.9

Query: Also, Nc1nc2sc(CN[C@H]3[C@@H]4CN(CC(O)(Cn5cncn5)c5ccc(F)cc5F)C[C@@H]43)cc2n(-c2ccc3c(c2)N(c2ccccc2)CCO3)c1=O (some centres unmarked) please.
Result: 1.04

Query: Also, Nc1nc2sc(CN[C@H]3CCCN(CC(O)(Cn4cncn4)c4ccc(F)cc4F)C3)cc2n(-c2ccc3c(c2)N(c2ccccc2)CCO3)c1=O (some centres unmarked) please.
Result: 1.02

Query: Also, Nc1nc2sc(CN3CCC(NCC(O)(Cn4cncn4)c4ccc(F)cc4F)CC3)cc2n(-c2ccc3c(c2)N(c2ccccc2)CCO3)c1=O (centres unmarked) please.
Result: 1.05

Query: Also, Cc1ccc(-n2c(=O)c(N)nc3sc(C(=O)NC4CCN(CC(O)(Cn5cncn5)c5ccc(F)cc5F)CC4)cc32)cc1Oc1ccccc1 (centres unmarked) please.
Result: 0.431

Query: Also, CC(F)(F)COC(=O)N1Cc2nc(N)nc(-c3c(Cl)cc(Cl)cc3OCCC(O)(Cn3cncn3)c3ccc(F)cc3F)c2C1 (centres unmarked) please.
Result: 1.17

---

target: Hsp90 Nuclear Binding Domain (NBD) (Aspergillus fumigatus, UniProt P40292); experiment: Surface Plasmon Resonance (SPR) binding, A. fumigatus Hsp90 NBD; details: biotinylated Hsp90 NBD on streptavidin chip, 25° C., 1:1 binding model; NB undefined
Listed compounds paired with reported Kd
Provide the reading as a plain figure in nM.

The following compounds have reported results that may help.
1) Nc1nc2sc(C(=O)NC3CCN(CC(O)(Cn4cncn4)c4ccc(F)cc4F)CC3)cc2n(-c2ccc3c(c2)N(c2ccccc2)CCC3)c1=O (stereo not drawn) = 140
2) Nc1nc2sc(C(=O)NC3CCN(CCC(O)(Cn4cncn4)c4ccc(F)cc4F)CC3)cc2n(-c2ccc3c(c2)N(c2ccccc2)CCO3)c1=O (stereo not drawn) = 159

Let us examine a further case.
Query: Could you tell me which Kd is on file for Nc1nc2sc(C(=O)Nc3ccc(CN4CCN(CC(O)(Cn5cncn5)c5ccc(F)cc5F)CC4)cc3)cc2n(-c2ccc3c(c2)N(c2ccccc2)CCO3)c1=O (stereo not drawn) ?
Result: 3870

---

Measured Kd on Hsp90 Nuclear Binding Domain (NBD) (Aspergillus fumigatus) follows.
Provide the reading as a plain figure in nM.

The following compounds have reported results that may help.
1) Nc1nc2sc(CNCC(O)(Cn3cncn3)c3ccc(F)cc3F)cc2n(-c2ccc3c(c2)N(c2ccccc2)CCO3)c1=O (stereo not drawn) = 1350
2) Nc1nc2sc(CNC3CCN(CC(O)(Cn4cncn4)c4ccccc4)CC3)cc2n(-c2ccc3c(c2)N(c2ccccc2)CCO3)c1=O (stereo not drawn) = 161
3) Nc1nc2sc(-c3noc(C(=O)NN4CCN(CC(O)(Cn5cncn5)c5ccc(F)cc5F)CC4)n3)cc2n(-c2ccc3c(c2)N(c2ccccc2)CCO3)c1=O (stereo not drawn) = 339
4) Nc1nc2sc(CNCC3CCN(CC(O)(Cn4cncn4)c4ccc(F)cc4F)CC3)cc2n(-c2ccc3c(c2)N(c2ccccc2)CCO3)c1=O (stereo not drawn) = 503
5) Nc1nc2sc(C(=O)N[C@@H]3CCN(C[C@@](O)(Cn4cncn4)c4ccc(F)cc4F)C3)cc2n(-c2ccc3c(c2)N(c2ccccc2)CCO3)c1=O = 24.8

Let us examine a further case.
Query: Could you tell me which Kd is on file for Nc1nc2scc(C(=O)NC3CCN(CC(O)(Cn4cncn4)c4ccc(F)cc4F)CC3)c2n(-c2ccc3c(c2)N(c2ccccc2)CCO3)c1=O (stereo not drawn) ?
Result: 741

---

Listed molecules paired with reported Kd
target: Hsp90 Nuclear Binding Domain (NBD) (Candida albicans (strain SC5314 / ATCC MYA-2876) (Yeast), UniProt P46598); assay: Surface Plasmon Resonance (SPR) binding, C. albicans Hsp90 NBD; details: biotinylated Hsp90 NBD on streptavidin chip, 25° C., 1:1 binding model
Sequence (P46598 1-218 limits assumed): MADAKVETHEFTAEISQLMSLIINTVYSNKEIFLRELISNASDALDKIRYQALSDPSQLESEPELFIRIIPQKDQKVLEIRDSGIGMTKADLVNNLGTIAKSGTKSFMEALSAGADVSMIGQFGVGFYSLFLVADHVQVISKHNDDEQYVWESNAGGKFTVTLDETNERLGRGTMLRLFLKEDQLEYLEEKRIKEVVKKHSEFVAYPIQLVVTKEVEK
Provide the reading as a plain figure in nM.

Query: Could you tell me which Kd is on file for CC1CC(NCc2cc3c(nc(N)c(=O)n3-c3ccc4c(c3)N(c3ccccc3)CCO4)s2)CCN1CC(O)(Cn1cncn1)c1ccc(F)cc1F (centres unmarked) [Compound I-138] ?
Result: 445

Query: Also, Nc1nc2sc(C(=O)NC3CCN(C[C@](O)(Cn4cncn4)c4ccc(F)cc4F)CC3)cc2n(-c2ccc3c(c2)N(c2ccccc2)CCO3)c1=O [Compound I-7] please.
Result: 22.8

Query: Also, Nc1nc2scc(C(=O)NC3CCN(C[C@](O)(Cn4cncn4)c4ccc(F)cc4F)CC3)c2n(-c2ccc3c(c2)N(c2ccccc2)CCO3)c1=O [Compound I-35] please.
Result: 1950

Query: Also, CC1(NCc2cc3c(nc(N)c(=O)n3-c3ccc4c(c3)N(c3ccccc3)CCO4)s2)CCN(CC(O)(Cn2cncn2)c2ccc(F)cc2F)CC1 (centres unmarked) [Compound I-117] please.
Result: 461

Query: Also, Nc1nc2sc(CNC3CCN(CC(O)(Cn4cncn4)c4ccc(F)cc4F)CC3(F)F)cc2n(-c2ccc3c(c2)N(c2ccccc2)CCO3)c1=O (centres unmarked) [Compound I-137] please.
Result: 54.1

Query: Also, Nc1nc2sc(C(=O)NC3CCCN(CC(O)(Cn4cncn4)c4ccc(F)cc4F)CC3)cc2n(-c2ccc3c(c2)N(c2ccccc2)CCO3)c1=O (centres unmarked) [Compound I-50] please.
Result: 42.7

Query: Also, CC(O)c1c(C(=O)NC2CCN(CC(O)(Cn3cncn3)c3ccc(F)cc3F)CC2)sc2nc(N)c(=O)n(-c3ccc4ccn(-c5ccccc5)c4c3)c12 (centres unmarked) [Compound I-56] please.
Result: 64.6

Query: Also, Nc1nc2sc(CNC3CCN(CCCCCC(O)(Cn4cncn4)c4ccc(F)cc4F)CC3)cc2n(-c2ccc3c(c2)N(c2ccccc2)CCO3)c1=O (centres unmarked) [Compound I-118] please.
Result: 191

Query: Also, Nc1nc2sc(CN[C@H]3CCCN(C[C@](O)(Cn4cncn4)c4ccc(F)cc4F)C3)cc2n(-c2ccc3c(c2)N(c2ccccc2)CCO3)c1=O [Compound I-130] please.
Result: 1580

Query: Also, Nc1nc2sc(C(=O)NC3CCN(CC(O)(Cn4cncn4)c4ccc(F)cc4F)CC3)cc2n(-c2ccc3ccn(-c4ccccc4)c3c2)c1=O (centres unmarked) [Compound I-13] please.
Result: 50.4

Query: Also, Nc1nc2sc(CNC3[C@@H]4CC[C@H]3CN(CC(O)(Cn3cncn3)c3ccc(F)cc3F)C4)cc2n(-c2ccc3c(c2)N(c2ccccc2)CCO3)c1=O (some centres unmarked) [Compound I-116] please.
Result: 1350
